- assayProcedure: Half life of the compound in phosphate buffered saline at 300 uM after 24 hrs at pH 7.4 by diazeniumdiolate chromophore-based UV-Vis spectrophotometric analysis
- Assay type: physicochemical
attributeMeasured: half-life at 300 µM (min)
The reply should contain only the number, in min.

{"columns": ["substanceSmiles", "attributeMeasured", "valueUnits", "observedResult"],
 "data": [
  ["CN(c1ccc(C#N)cc1)N(O)N=O", "half-life at 300 µM", "min", 11]
]}

Shifting focus to the molecule that follows.
half-life at 300 µM reading for [Na+].[O-]/N=[N+](/[O-])N1C2CCC1c1ccccc12 : 17.8
